Biological target: beta-catenin/TCF4 engagement (Homo sapiens)
Construct: expressed in transfected cells; host or cells: HEK293
Sequence (P35222 1-781): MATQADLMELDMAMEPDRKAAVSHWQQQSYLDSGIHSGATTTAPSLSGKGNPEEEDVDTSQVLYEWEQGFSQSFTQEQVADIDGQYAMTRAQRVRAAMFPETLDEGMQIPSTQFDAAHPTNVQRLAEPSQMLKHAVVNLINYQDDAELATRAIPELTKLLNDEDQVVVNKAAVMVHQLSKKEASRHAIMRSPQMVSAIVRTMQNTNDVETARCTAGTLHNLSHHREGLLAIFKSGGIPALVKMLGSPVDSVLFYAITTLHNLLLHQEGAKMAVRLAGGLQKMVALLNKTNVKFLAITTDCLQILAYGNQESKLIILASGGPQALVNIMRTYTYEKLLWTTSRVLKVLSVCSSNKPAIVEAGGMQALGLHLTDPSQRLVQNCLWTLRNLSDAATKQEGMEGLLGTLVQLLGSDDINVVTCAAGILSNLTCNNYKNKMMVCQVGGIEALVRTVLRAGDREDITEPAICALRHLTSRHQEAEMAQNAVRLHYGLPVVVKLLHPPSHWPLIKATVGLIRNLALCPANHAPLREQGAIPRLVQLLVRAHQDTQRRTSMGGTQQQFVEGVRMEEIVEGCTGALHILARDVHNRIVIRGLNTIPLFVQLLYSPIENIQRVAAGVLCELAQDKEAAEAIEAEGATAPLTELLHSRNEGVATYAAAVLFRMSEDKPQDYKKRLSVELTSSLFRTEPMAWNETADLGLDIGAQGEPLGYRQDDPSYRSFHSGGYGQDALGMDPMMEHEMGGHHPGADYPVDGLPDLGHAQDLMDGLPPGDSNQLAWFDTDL
Assay: Nano-BRET target engagement assay (B-cat-Halo & TCF4-Luc in HEK293 cells)
Format: cell-based
Conditions: absolute IC50; read-out: NanoBRET Abs IC50
READOUT KIND: IC50 (nM)

molecule="CC(=O)N1CCC[C@]12CC=CCCCC1(CCCC=CCCCOC(=O)N3CC[C@@](C(=O)N[C@@H](Cc4ccccc4C(F)(F)F)C(=O)N[C@@H](Cc4csc5ccccc45)C(=O)N[C@@H](CCC(N)=O)C(=O)N[C@@H](CC(C)C)C(=O)N[C@@H](Cc4ccccc4)C(N)=O)(C3)NC(=O)[C@H](CC(C)C)NC(=O)[C@H](Cc3ccccc3)NC(=O)[C@H](C)NC(=O)[C@H](C)NC(=O)[C@H](Cc3cccc(C(=O)O)c3)NC(=O)[C@H](CC(=O)O)NC1=O)NC(=O)[C@H](CC(C)(C)C)NC(=O)[C@H](CC(=O)O)NC2=O (stereo partly shown)" test_target="beta-catenin/TCF4 engagement (Homo sapiens)" u=nM numeric_readout=2100
